- test.target: CyclinB1/CDK1 (Homo sapiens)
- Construct: purchased Eurofins, discovery 14-450
- test.description: Fluorescence Polarization (FP) competitive binding assay, Cyclin B1/Cdk1;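 note: fluorescence polarization read after equilibration at room temperature, with IC50 taken from serially diluted dose-response curves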
- measurement.setup: 10 nM Cyclin B1/Cdk1, 2 nM FAM probe; average of 2-3 independent experiments; read-out: Cyclin B FP IC50
*1 amine or outer side, *2 acyl side, *3 side chain or, on linkers, in order; H or OH if unused. Where a SMILES comes first, the peptide text is derived from it. Bridges are numbered along the chain shown (N, C = ends). [ ]: non-standard residue; d: D form. The star is where a group is joined. X12 = CN1CCN(c2ccc(-c3ccc(F)cc3C[C@@H](C(=O)[*:2])N(C)[*:1])cc2)CC1; X26 = CN([C@@H](Cc1cc(F)ccc1-c1cnn(C2CC2)c1)C(=O)[*:2])[*:1]; NMehhhLys(Me) = CN([C@@H](CCCCCCCN(C)[*:3])C(=O)[*:2])[*:1]; NMe(hhhLys) = CN([C@@H](CCCCCCCN[*:3])C(=O)[*:2])[*:1]; cBuCO(3,3-F2-1-CF3) = O=C(C1(C(F)(F)F)CC(F)(F)C1)*; Pro(trans-4-F) = O=C(O)[C@@H]1C[C@@H](F)CN1; Gly(cPr) = N[C@H](C(=O)O)C1CC1
pIC50 listing for selected compounds.
Field pIC50 (float): negative decimal logarithm of the concentration in molar.

Look over these answered cases.
| compound | reported |
| --- | --- |
| CC(C)C[C@@H]1NC(=O)[C@@H](N(C)C(=O)[C@@H](NC(=O)[C@@H]2C[C@@H](F)CN2C(=O)C2(C(F)(F)F)CC(F)(F)C2)C2CC2)CCCCCCCNC(=O)[C@H](Cc2cc(F)ccc2-c2cnn(C3CC3)c2)N(C)C1=O [Example 213] ({cBuCO(3,3-F2-1-CF3)}-[Pro(trans-4-F)][Gly(cPr)][NMe(hhhLys)]L[X26]; lactam 3-C) | 7.70 |
| CC(C)C[C@@H]1NC(=O)[C@@H](N(C)C(=O)[C@@H](NC(=O)[C@@H]2C[C@@H](F)CN2C(=O)C2(C(F)(F)F)CC(F)(F)C2)C2CC2)CC=CCCCCNC(=O)[C@H](Cc2cc(F)ccc2-c2cnn(C)c2)N(C)C1=O | 7.70 |

As a next step, examine the compound that follows.
Enquiry: # returns recorded pIC50 (system: CyclinB1/CDK1 (Homo sapiens)) for CC(C)C[C@@H]1NC(=O)[C@@H](N(C)C(=O)[C@@H](NC(=O)[C@@H]2C[C@@H](F)CN2C(=O)C2(C(F)(F)F)CC(F)(F)C2)C2CC2)CCCCCCCN(C)C(=O)[C@H](Cc2cc(F)ccc2-c2ccc(N3CCN(C)CC3)cc2)N(C)C1=O [Example 353] ({cBuCO(3,3-F2-1-CF3)}-[Pro(trans-4-F)][Gly(cPr)][NMehhhLys(Me)]L[X12]; lactam 3-C)
Return: 7.70

Origin of values: patent US20240408169A1
